Compiled record: pKi values for Prostaglandin E2 receptor EP2 subtype (Homo sapiens, UniProt P43116) across several sources.
FYI, pKi means -log10 of a concentration in mol per litre.

molecule | pKi
CCC1(C(O)CCC[C@@H]2[C@@H](CCCc3ccc(C(=O)O)s3)CC[C@@H]2F)CCC1 (some centres unmarked) | 7.60
O=C(O)c1ccc(CCC[C@@H]2[C@@H](CCc3cc(Cl)cc(Cl)c3)[C@@H](O)C[C@H]2Cl)s1 | 7.66
O=C(O)c1ccc(CNC(=O)c2cc(-c3cccc(F)c3)ccc2F)s1 | 6.20
COc1cccc(CC2=C(C(=O)NCc3ccc(C(=O)O)cc3)CCCC2)c1OC | 5.92
CCc1cccc(COC[C@@H]2[C@@H](CCCc3ccc(C(=O)O)s3)[C@H](Cl)C[C@H]2O)c1 | 8.52

Let's switch to this molecule now.
Could you tell me which pKi is on file for CCCCC(O)(CC)CCCN1CCC(=O)N1CCc1ccc(C(=O)O)cc1 (centres unmarked) ? 6.31

---

# Ki against Prostaglandin E2 receptor EP2 subtype (Homo sapiens, UniProt P43116), merged from multiple literature sources

molecule | Ki
N#Cc1cc(F)cc(-c2ccc(Oc3ccc(F)cc3)c(C(=O)NCc3ccc(C(=O)O)cc3)c2)c1 | 1000 to 10000 nM
C[C@@H](NC(=O)c1cc(-c2cccc(C(F)(F)F)c2)ccc1Oc1ccc(F)cc1)c1ccc(C(=O)O)cc1 | 1000 to 10000 nM
O=C(O)c1ccc(C2(NC(=O)c3cc(-c4cccc(C(F)(F)F)c4)ccc3Oc3ccc(F)cc3)CC2)cc1 | 1000 to 10000 nM
COc1cccc(CC2=C(C(=O)NCc3ccc(C(=O)O)cc3)CCCC2)c1 | 138 nM
CCCCC[C@H](O)c1ccc(N2C(=O)NC(=O)C2CCCc2ccc(C(=O)O)s2)cc1 (stereo in doubt) | 5 nM
O=C(O)c1ccc(CCC[C@@H]2[C@@H](CNc3cc(Cl)cc(Cl)c3)[C@H](O)C[C@H]2Cl)s1 | 336 nM
O=C(O)c1ccc(C=CC[C@@H]2[C@@H](C=Cc3cc(Cl)cc(Cl)c3)[C@H](O)C[C@H]2Cl)s1 | 2.2 nM
OCc1ccc(CCC[C@@H]2[C@@H](CCc3cc(Cl)cc(Cl)c3)[C@H](O)C[C@H]2Cl)s1 | 502 nM
CCCCCCCc1ccc2c(C(=O)Nc3cccc(OCC(=O)O)c3)cccc2c1 | 1200 nM
CCCCCC(O)c1ccc(N2C(=O)C(C)C[C@@H]2COCc2ccc(C(=O)O)s2)cc1 (single isomer, unassigned) | > 10000 nM

What measured Ki is associated with `CCCCCCCC[C@@H]1[C@@H](CCCc2ccc(C(=O)O)s2)[C@H](Cl)C[C@H]1O` on Prostaglandin E2 receptor EP2 subtype (Homo sapiens, UniProt P43116)? 0.5 nM

Identify the measured Ki of `O=C(O)c1ccc(CNC(=O)c2cc(-c3cncnc3)ccc2Oc2ccc(F)cc2)cc1` for Prostaglandin E2 receptor EP2 subtype (Homo sapiens, UniProt P43116). ≥ 10000 nM

Please provide the recorded Ki for `O=C(O)c1ccc(CCC[C@@H]2[C@@H](/C=C/c3cc(Cl)nc(Cl)c3)[C@H](O)C[C@H]2Cl)s1` , tested on Prostaglandin E2 receptor EP2 subtype (Homo sapiens, UniProt P43116). 2.3 nM

Param readout = Ki; param system = Prostaglandin E2 receptor EP2 subtype (Homo sapiens, UniProt P43116); param query = `O=C(O)COc1cccc(NC(=O)c2cccc3ccccc23)c1` ; response: value 4600 nM

Query Ki on Prostaglandin E2 receptor EP2 subtype (Homo sapiens, UniProt P43116) for `COc1ccccc1CC1=C(C(=O)NCc2ccc(C(=O)O)cc2)CCCC1` 219 nM

For the record O=C(O)c1ccc(CCN2C(=O)CCN2CCC(O)Cc2ccccc2)cc1 (centres unmarked) , what value of Ki is listed for Prostaglandin E2 receptor EP2 subtype (Homo sapiens, UniProt P43116)? 6200 nM

Record lookup: for Prostaglandin E2 receptor EP2 subtype (Homo sapiens, UniProt P43116), what Ki belongs to `O=C(NCc1ccc(C(=O)O)cc1)C1=C(Cc2cccc(C(F)(F)F)c2)CCC1` ? 109 nM

Can you look up Ki on Prostaglandin E2 receptor EP2 subtype (Homo sapiens, UniProt P43116) for `O=C(NCCCc1ccc(C(=O)O)s1)c1cc(F)cc(-c2cccc(F)c2)c1` ? 126 nM

Form entry - test system: Prostaglandin E2 receptor EP2 subtype (Homo sapiens, UniProt P43116); read-out: Ki; molecule: CCCCCC(O)c1ccc(N2C(=O)CC[C@@H]2COCc2cc(C(=O)O)cs2)cc1 (some centres unmarked) 448 nM

Find Ki (Prostaglandin E2 receptor EP2 subtype (Homo sapiens, UniProt P43116)) for the entry CC(C)CC(O)CCCN1CCC(=O)N1CCc1ccc(C(=O)O)cc1 (centres unmarked) 28600 nM

---

// cross-source set; read-out = Ki; system = Prostaglandin E2 receptor EP2 subtype (Homo sapiens)
State the answer as a number, implicitly in nM.

Examples with answers:
compound | assayed.system | assay.value
CCCCCC(=O)c1ccc(N2CC[C@@H](Cl)[C@@H]2COCc2ccc(C(=O)O)s2)cc1 | Prostaglandin E2 receptor EP2 subtype (Homo sapiens) | 85
O=C(O)c1ccc(CCC[C@@H]2[C@@H](CNCc3ccccc3)[C@H](O)C[C@H]2Cl)s1 | Prostaglandin E2 receptor EP2 subtype (Homo sapiens) | 143
CCCCCC(O)c1ccc(N2C(=O)CC[C@@H]2CCCc2nc(C(=O)O)cs2)cc1 (stereo partly shown) | Prostaglandin E2 receptor EP2 subtype (Homo sapiens) | 115
O=C(O)c1ccc(CCC[C@@H]2[C@@H](C[S+]([O-])c3cc(Cl)cc(Cl)c3)[C@H](O)C[C@H]2Cl)s1 (stereo partly shown) | Prostaglandin E2 receptor EP2 subtype (Homo sapiens) | 12
O=C(O)c1ccc(CCC[C@@H]2[C@@H](/C=C\c3cc(Cl)nc(Cl)c3)[C@H](O)C[C@H]2Cl)s1 | Prostaglandin E2 receptor EP2 subtype (Homo sapiens) | 38

Ki for CCCC(C)(O)CCCN1CCC(=O)N1CCc1ccc(C(=O)O)cc1 (stereo not shown) ? 28900

Given CCCCCC(O)c1ccc2c(C(=O)Nc3cccc(OCC(=O)O)c3)cccc2c1 (stereo not shown) , state its recorded Ki. 37

What value of Ki has been recorded for this entry: CCC1(C(O)CCC[C@@H]2[C@@H](CCCc3ccc(C(=O)O)s3)CC[C@H]2Cl)CCC1 (stereo partly shown) 40

What does the record list as Ki for `O=C(O)c1ccc(COC[C@H]2CCC(=O)N2CCc2cc(Cl)cc(Cl)c2)s1` ? 159

Request the reported Ki associated with `O=C(O)c1ccc(CCC[C@@H]2[C@@H](C#Cc3cccc(CCCO)c3)[C@H](O)C[C@H]2Cl)s1` 2

Recorded Ki of CCCCCC(O)c1ccc(N2CC[C@@H](Cl)[C@@H]2COCc2ccc(C(=O)O)s2)cc1 (stereo partly shown) , please. 1840

Which Ki value belongs to `Cc1ccc(-c2cccc(CO)c2)cc1C(=O)Nc1c(C)ccc(C(=O)O)c1C` ? 5850

# lookup: Ki of CCCCC[C@H](O)c1ccc(N2C(=O)CO[C@@H]2CCCc2ccc(C(=O)O)s2)cc1 (single isomer, unassigned) 7

Quick one: Ki for COc1cc(CC2CCCC2C(=O)NCc2ccc(C(=O)O)cc2)cc(OC)c1 (single isomer, unassigned) ? 6190

Which Ki is reported for this compound? `CCCCCCc1cnc2c(C(=O)Nc3cccc(OCC(=O)O)c3)cccc2c1` 25

Would you mind telling me what Ki value was observed for `CCCCCC=C[C@@H]1[C@@H](CCCc2ccc(C(=O)O)s2)[C@H](Cl)C[C@H]1O` ? 14

Which Ki is listed for `O=C(O)c1ccc(CCC[C@@H]2[C@@H](C#Cc3cccs3)[C@H](O)C[C@H]2Cl)s1` ? 10

---

Prostaglandin E2 receptor EP2 subtype (Homo sapiens, UniProt P43116) Ki, compiled from various sources.
All answers are understood in nM, so give the number only.

Solved entries:
molecule | assayed.system | units.symbol | Ki
CCCCCCc1ccc(-n2cccc2CCCc2ccc(C(=O)O)s2)cc1 | Prostaglandin E2 receptor EP2 subtype (Homo sapiens, UniProt P43116) | nM | 46
CCCCC[C@H](O)c1ccc(N2C(=O)CO[C@H]2CCCc2ccc(C(=O)O)s2)cc1 (single isomer, unassigned) | Prostaglandin E2 receptor EP2 subtype (Homo sapiens, UniProt P43116) | nM | 90
CCCCC[C@H](O)c1ccc(N2C(=O)NC(=O)[C@H]2CCCc2ccc(C(=O)O)s2)cc1 | Prostaglandin E2 receptor EP2 subtype (Homo sapiens, UniProt P43116) | nM | 4
C=CCCCCCC[C@@H]1[C@@H](CCCc2ccc(C(=O)O)s2)[C@H](Cl)C[C@H]1O | Prostaglandin E2 receptor EP2 subtype (Homo sapiens, UniProt P43116) | nM | 3
CCCC(O)c1ccc2c(C(=O)Nc3cccc(OCC(=O)O)c3)cccc2c1 (stereo not drawn) | Prostaglandin E2 receptor EP2 subtype (Homo sapiens, UniProt P43116) | nM | 63
Cc1cccc(/C=C/[C@@H]2[C@@H](CCCc3ccc(C(=O)O)s3)[C@H](Cl)C[C@H]2O)c1 | Prostaglandin E2 receptor EP2 subtype (Homo sapiens, UniProt P43116) | nM | 2

Hello, I am looking for reported Ki with Prostaglandin E2 receptor EP2 subtype (Homo sapiens, UniProt P43116) for `CCCCCC1(CC[C@@H]2[C@@H](CCCc3ccc(C(=O)O)s3)[C@H](Cl)C[C@H]2O)CCCCC1` . Could you help? 1040

Hi! What's the reported Ki for O=C(O)CCCCCCN1C(=O)CC[C@@H]1/C=C/C(O)c1cccc(Oc2ccc(Cl)cc2)c1 (stereo partly drawn) on Prostaglandin E2 receptor EP2 subtype (Homo sapiens, UniProt P43116)? 22900

Requested read-out Ki, target or system Prostaglandin E2 receptor EP2 subtype (Homo sapiens, UniProt P43116), entry COc1cccc(CC2CCCCC2C(=O)NCc2ccc(C(=O)O)cc2)c1 (single isomer, unassigned) 2570

# value lookup — system Prostaglandin E2 receptor EP2 subtype (Homo sapiens, UniProt P43116), readout Ki, item O=C(O)c1ccc(CNC(=O)C2CCCCC2Cc2ccccc2)cc1 (single isomer, unassigned) 2920

Prostaglandin E2 receptor EP2 subtype (Homo sapiens, UniProt P43116) / Ki / `O=C(O)CCC/C=C\C[C@@H]1[C@@H](CNc2cc(Cl)cc(Cl)c2)[C@H](O)C[C@H]1Cl` : value? 18
